Just for reference, PubChem BioAssay (NCATS) is where these values come from.

Experiment: Identifying Small Molecule Inhibitors of Pancreatic Cancer Stem Cells (Panc1, Spheroid) (AID 1259359);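 note: potency is the fitted concentration of half-maximal effect; compound exposure lasted 48 h before reading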
Conditions: Panc1 spheroid cancer stem cell viability
Records with an inconclusive call do not appear. Active and inactive are the calls of the source. Calls come from the whole dose curve; as a rule, active = well fitted cell-killing curve with a large enough effect; inconclusive = small, poorly fitted or top-dose-only effect, or effect the other way, or another doubt; inactive = no such curve, though single readings can be large or run the other way.
Assay Endpoint: Potency

Reference set (5 entries):
- Smiles Text: "CO[C@H]1C[C@@H]2CC[C@@H](C)[C@@](O)(O2)C(=O)C(=O)N2CCCC[C@@H]2C(=O)O[C@H]([C@H](C)C[C@@H]2CC[C@H](OCCO)[C@H](OC)C2)CC(=O)[C@H](C)C=C(C)[C@@H](O)[C@@H](OC)C(=O)[C@H](C)C[C@H](C)C=CC=CC=C1C"
  Potency: "26.4 µM (active)"
- Smiles Text: "COc1ncc(-c2ccc3nccc(-c4ccnnc4)c3c2)cc1NS(=O)(=O)c1ccc(F)cc1F"
  Potency: "0.0074 µM (active)"
- Smiles Text: "COc1cc(N2CCC(N3CCN(C)CC3)CC2)ccc1Nc1ncc(Cl)c(Nc2ccccc2S(=O)(=O)C(C)C)n1"
  Potency: "0.418 µM (active)"
- Smiles Text: "c1ccc2c(-c3cnn4cc(-c5ccc(N6CCNCC6)cc5)cnc34)ccnc2c1"
  Potency: "26.4 µM (active)"
- Smiles Text: "CC(=O)Nc1ccc([C@H](C)C(=O)Nc2ncc(C(C)C)s2)cc1"
  Potency: "8.33 µM (active)"

Given the entry `CC(C)(C(=O)NCC(F)(F)C(F)(F)F)C(=O)N[C@@H]1C(=O)Nc2ccccc2-c2ccccc21` , report its measured Potency.
0.0015 µM (active)

----------
Assay: Quantitative High-Throughput drug screen in 47 multiple myeloma cell lines against the NCATS MIPE library collection: ARP1_JJKsccF8 cell viability assay (AID 1918928; note: nearly all actives have a fitted effect of over 40% in size;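 for viability: 100% = DMSO only wells and 0% = medium only wells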)
Conditions: ARP1 myeloma cells viability, CellTiter-Glo ATP, 48 h; series mostly up to 45.8 µM
Inconclusive results are not listed. Activity calls are given as the source filed them. Calls come from the whole dose curve; as a rule, active = well fitted cell-killing curve with a large enough effect; inconclusive = small, poorly fitted or top-dose-only effect, or effect the other way; inactive = no such curve, though single readings can be large or run the other way.
Respond only with the outcome that fits, drawn from active, inactive

Recorded results for 5 compounds are shown here.
- Compound: "CC1(C)CCC[C@@]2(C)[C@@H]1CC[C@@]1(C)OC(=O)C[C@H]21"
  Category: "inactive"
- Compound: "O=C(O)CCC1CCC(c2cc(F)ccc2F)(S(=O)(=O)c2ccc(Cl)cc2)CC1 (stereo unspecified)"
  Category: "inactive"
- Compound: "COc1ccc2cccc(CCNC(C)=O)c2c1"
  Category: "inactive"
- Compound: "CC1(C)S[C@H]2[C@H](NC(=O)[C@@H](N)c3ccc(O)cc3)C(=O)N2[C@@H]1C(=O)O"
  Category: "active"
- Compound: "CC(=O)Nc1ccc([C@H](C)C(=O)Nc2ncc(C(C)C)s2)cc1"
  Category: "active"

Could you please tell me the result logged for `CCc1ccc(C=C2SC(=S)NC2=O)cc1` in this assay?
inactive

What do you have for CS(=O)(=O)N(Cc1ccco1)CC(O)Cn1c2ccccc2c2ccccc21 (stereo unspecified) ?
inactive

Moving on to `CO[C@H]1C(=O)[C@]2(C)[C@@H](OC)C[C@H]3OC[C@@]3(OC(C)=O)[C@H]2[C@H](OC(=O)c2ccccc2)[C@]2(O)C[C@H](OC(=O)[C@H](O)[C@@H](NC(=O)OC(C)(C)C)c3ccccc3)C(C)=C1C2(C)C`
inactive

----------
Molecular target: Guanidinoacetate N-methyltransferase (Homo sapiens) (UniProt Q14353)
Assay: Confirmatory Screen for Target Class Profiling of Small Molecule Inhibitors of Methyltransferases (AID 1745852); note: potency is the fitted concentration of half-maximal effect
Conditions: MTase-Glo luminescence, SAH detection, recombinant enzyme
Activity calls are given as the source filed them. Calls follow the shape of the full dose curve.
Assay Endpoint: Potency

Here is how some compounds turned out for Potency.
- Smiles Text: "Cc1cccc(Nc2nc(-c3ccncc3)cs2)c1"
  Assay Endpoint: "Potency"
  Result: "13.6 µM (active)"
- Smiles Text: "COc1cc2ncnc(Nc3ccc(F)c(Cl)c3)c2cc1OCCCN1CCOCC1"
  Assay Endpoint: "Potency"
  Result: "24.1 µM (active)"
- Smiles Text: "COc1cc(N2CCC(N3CCN(C)CC3)CC2)ccc1Nc1ncc(Cl)c(Nc2ccccc2S(=O)(=O)C(C)C)n1"
  Assay Endpoint: "Potency"
  Result: "27.1 µM (active)"

Name the recorded Potency for `CC1(C)CCC2=C(O1)c1ccccc1C(=O)C2=O` .
9.68 µM (active)

----------
Assay: qHTS of pediatric cancer cell lines to identify multiple opportunities for drug repurposing: Confirmatory screen for BT-37 cells (AID 1347117);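 note: potency is the fitted concentration of half-maximal effect; viability measured after 48 h of compound exposure; nearly all actives have a fitted effect of over 55% in size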
Details: BT-37 pediatric cancer cells, viability; series mostly up to 45.9 µM
Inconclusive results are not listed. Active and inactive are the calls of the source. Calls come from the whole dose curve; as a rule, active = well fitted cell-killing curve with a large enough effect; inconclusive = small, poorly fitted or top-dose-only effect; inactive = no such curve, though single readings can be large or run the other way.
Log the outcome using a class from class 1 (active), class 0 (inactive)

Look up the recorded call for `CC(=O)Nc1ccc([C@H](C)C(=O)Nc2ncc(C(C)C)s2)cc1` in this test.
class 1

----------
Experiment: qHTS assay for measurement of the activity of small molecule inhibitors on Zika virus induced Caspase-3 activity in human astrocytoma cells (AID 1224859);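 note: plate controls were ZIKV-infected untreated cells for no effect and uninfected cells for full effect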
Details: SNB-19 ZIKV-induced caspase-3/7, luminescence, 6 h; series mostly up to 45.7 µM
Activity calls are given as the source filed them. The call rests on the fitted dose curve; in most records, active means well fitted inhibition curve with a large enough effect; inconclusive means small, poorly fitted or top-dose-only effect; inactive means no such curve, though single readings can be large or run the other way.
Assay Endpoint: outcome

Worked cases, outcome given:
- Molecule: "N#CC(=C(N)Sc1ccccc1N)C(C#N)=C(N)Sc1ccccc1N"
  Result: "inactive"
- Molecule: "CN(C[C@@H]1COCCO1)S(=O)(=O)Nc1ccc2ccc3ncc(-c4cnn(C)c4)cc3c(=O)c2c1"
  Result: "inactive"
- Molecule: "CC(C)C(C)C=CC(C)C1CCC2C3=CC=C4CC(O)CCC4(C)C3CCC21C (stereo not given)"
  Result: "inactive"
- Molecule: "O=C(NCc1ccncc1)C12C[C@H]3C[C@@H](C1)CC(c1ccc(Cl)cc1)(C3)C2"
  Result: "inactive"

In the following, a different molecule is considered.
Return reported outcome; argument: `COc1cc(NC(=O)c2ccc(-c3ccc(Cl)cc3)o2)cc(OC)c1`
inactive

----------
Test: qHTS of pediatric cancer cell lines to identify multiple opportunities for drug repurposing: Primary screen for TC32 cells (AID 1347089); note: nearly all actives have a fitted effect of over 60% in size
Conditions: TC32 Ewing sarcoma viability, CellTiter-Glo luminescence, 48 h; series mostly up to 45.8 µM
Records with an inconclusive call do not appear. Activity calls are given as the source filed them. Calls come from the whole dose curve; as a rule, active = well fitted cell-killing curve with a large enough effect; inconclusive = small, poorly fitted or top-dose-only effect; inactive = flat fitted curve, though single readings scatter.
Answer with one of the outcomes given here: active, inactive

- Compound: "CO[C@H]1C(=O)[C@]2(C)[C@@H](OC)C[C@H]3OC[C@@]3(OC(C)=O)[C@H]2[C@H](OC(=O)c2ccccc2)[C@]2(O)C[C@H](OC(=O)[C@H](O)[C@@H](NC(=O)OC(C)(C)C)c3ccccc3)C(C)=C1C2(C)C"
  Category: "active"
- Compound: "CO[C@H]1C[C@@H]2CC[C@@H](C)[C@@](O)(O2)C(=O)C(=O)N2CCCC[C@@H]2C(=O)O[C@H]([C@@H](C)C[C@@H]2CC[C@H](O)[C@H](OC)C2)CC(=O)[C@H](C)C=C(C)[C@@H](O)[C@@H](OC)C(=O)[C@H](C)C[C@H](C)C=CC=CC=C1C"
  Category: "inactive"
- Compound: "CCC(CC)[C@H](NC(C)=O)[C@@H]1[C@H](O)[C@@H](C(=O)O)C[C@@H]1N=C(N)N"
  Category: "inactive"
- Compound: "COCCCCC(=NOCCN)c1ccc(C(F)(F)F)cc1"
  Category: "inactive"
- Compound: "C=CCc1ccc(O)c(-c2ccc(O)c(CC=C)c2)c1"
  Category: "inactive"
- Compound: "O=c1c(-c2ccc(O)cc2)coc2cc(O[C@@H]3O[C@H](CO)[C@H](O)[C@H](O)[C@H]3O)ccc12"
  Category: "inactive"
- Compound: "C[C@H](NC(=O)C(=O)Nc1ccccc1C(C)(C)C)C(=O)N[C@@H](CC(=O)O)C(=O)COc1c(F)c(F)cc(F)c1F"
  Category: "inactive"
- Compound: "C[C@]12CC[C@@H]3c4ccc(O)cc4C[C@@H](CCCCCCCCCS(=O)CCCC(F)(F)C(F)(F)F)[C@H]3[C@H]1CC[C@H]2O (some centres undefined)"
  Category: "inactive"

Kindly provide the recorded test outcome for the following compound: `Clc1ccc(-c2nc3sccn3c2C=NOCc2ccc(Cl)c(Cl)c2)cc1`
inactive

Same question, CC(C)NCC(O)COc1cccc2[nH]ccc12 (centres undefined) this time
inactive

Next compound: `Oc1ccc(C2CCN(c3ccnc4ccccc34)CC2)cc1O`
inactive

And for `NC(=O)c1cnc(-c2ccc(C3(N)CCC3)cc2)c(-c2ccccc2)c1` ?
inactive

Moving on to `CCN(CC)CCNC(=O)c1ccc(N)cc1`
inactive

# iterate: `CO[C@H]1C[C@@H]2CC[C@@H](C)[C@@](O)(O2)C(=O)C(=O)N2CCCC[C@@H]2C(=O)O[C@H]([C@H](C)C[C@@H]2CC[C@H](OCCO)[C@H](OC)C2)CC(=O)[C@H](C)C=C(C)[C@@H](O)[C@@H](OC)C(=O)[C@H](C)C[C@H](C)C=CC=CC=C1C`
active

Lookup `NS(=O)(=O)c1cccc2c1C(=O)c1cccc(O)c1C2=O`
inactive

Then this compound: `CC(C)(C)Cn1c(N)nc2ccc(-c3[nH]c(C(C)(C)C)nc3-c3ccc(F)cc3)nc21`
active

Check `COc1cc(NC(=O)c2ccc(-c3ccc(Cl)cc3)o2)cc(OC)c1` too.
inactive

`O=C(O)c1ccc(-c2cc3cccnc3c(-c3ccc4nonc4c3)n2)cc1` , same question.
inactive

How about CC(=O)OC1C(C)OC(Oc2c(-c3ccc(O)cc3)oc3cc(O)cc(O)c3c2=O)C(O)C1OC(C)=O (centres undefined) ?
inactive

// next record `C[N+](C)(C)CCCCCC[N+](C)(C)C`
inactive

// repeat for O=C(O)C(O)Cc1ccc(O)c(O)c1 (centres undefined) and report
inactive

Then what about the compound `NCCS` ?
inactive

Same for `NC[C@@H]1O[C@@H](O[C@H]2[C@@H](O)[C@H](O[C@@H]3[C@@H](O)[C@@H](N)C[C@H](N)[C@H]3O[C@H]3O[C@H](CN)[C@@H](O)[C@@H](O)[C@H]3N)O[C@H]2CO)[C@H](N)[C@@H](O)[C@@H]1O`
inactive

// same read-out, input: `COC[C@@H](c1ccc(C(F)(F)F)cc1)N1CCN(C2(C)CCN(C(=O)c3c(C)ncnc3C)CC2)C[C@H]1C`
inactive

Ok, now COc1ccc(C2Sc3ccccc3N(CCN(C)C)C(=O)C2OC(C)=O)cc1 (centres undefined)
inactive

How about this compound: `CC[C@@H]1C=C(C)C[C@H](C)C[C@H](OC)[C@H]2O[C@@](O)(C(=O)C(=O)N3CCCC[C@@H]3C(=O)O[C@H](C(C)=C[C@@H]3CC[C@H](Cl)[C@H](OC)C3)[C@H](C)[C@@H](O)CC1=O)[C@H](C)C[C@H]2OC`
inactive

Quick one: `CN(C)c1cc(NC(=O)CNC(C)(C)C)c(O)c2c1C[C@@H]1C[C@H]3[C@H](N(C)C)C(=O)C(C(N)=O)=C(O)[C@@]3(O)C(=O)C1=C2O`
inactive

// query: `CC(C)OC(=O)CCCC=CC[C@@H]1[C@H](C=C[C@@H](O)COc2cccc(C(F)(F)F)c2)[C@H](O)C[C@@H]1O`
inactive

Let us now turn to `COc1ccccc1N1CCN(CCCNc2cc(=O)n(C)c(=O)n2C)CC1`
inactive
